# measured-on: recombinant HIV-1 protease (Human immunodeficiency virus type 1 group M subtype B, UniProt P04585)
# Construct: recombinant HIV-1 protease; purchased Bachem Bioscience
# experiment-notes: Fluorometric (FRET) enzymatic assay for the inhibition constant (Ki) against the HIV protease
# Type: biochemical
# measurement-conditions: Table 2, tetra-substituted D-mannitol derivatives; pH 4.7, 30° C., substrate 10 μM, protease 18.3 nM
endpoint: Ki (µM)

- O[C@@H]([C@H](O)[C@@H](COCc1ccccc1)OCC1CC1)[C@@H](COCc1ccccc1)OCC1CC1: 9
- C=CCO[C@H](COCc1ccccc1)[C@@H](O)[C@H](O)[C@@H](COCc1ccccc1)OCC=C: 11
- C=CCOC[C@@H](OCC=C)[C@@H](O)[C@H](O)[C@@H](COCC=C)OCC=C: 190
